Hello, the source for this data is PubChem BioAssay, in case you need it.

# ASSAY_INFO: stimulators of insulin release from INS-1E, primary screen, cell-based, 5 mM glucose, NPC library (AID 1117329); note: reference of the scale not given here
# PARTICULARS: rat INS-1E insulin secretion, at 10 µM, stronger effect = higher value
The compounds listed here are annotated with their insulin secretion stimulation.
READOUT_KIND: insulin secretion stimulation (%)

COMPOUND	READOUT_KIND	RESULT_UNIT	MEASURED_VALUE
COc1cc(C(C)=O)ccc1OCCCN1CCC(c2noc3cc(F)ccc23)CC1	insulin secretion stimulation	%	3.8
CC(C)=CCC/C(C)=C/CO	insulin secretion stimulation	%	0.7
CC(C)(C)NCC(O)c1ccc(O)c(CO)c1 (stereo unspecified)	insulin secretion stimulation	%	1.1
NCCCC(O)(P(=O)(O)O)P(=O)(O)O	insulin secretion stimulation	%	2.3
NC(=O)c1cc[n+](CC2=C(C(=O)[O-])N3C(=O)[C@@H](NC(=O)Cc4cccs4)[C@H]3SC2)cc1	insulin secretion stimulation	%	11.8
C#Cc1cccc(Nc2ncnc3cc(OCCOC)c(OCCOC)cc23)c1	insulin secretion stimulation	%	1.8

====

# ASSAY_INFO: phospholipid biosynthesis inhibitors in animal cells, primary screen, cell-based, LOPAC library, screen 4 (AID 1347384)
# PARTICULARS: phospholipid biosynthesis inhibition screen, at 10 µM
Active and inactive are the calls of the source. The rule behind the calls is not given here.
READOUT_KIND: outcome

COMPOUND	MEASURED_VALUE
COC(=O)[C@@H](N)Cc1ccc(O)c(O)c1	inactive
CCCN(CCC)CCc1cccc2c1CC(=O)N2	inactive
CC(=O)[C@@]1(O)CC[C@H]2[C@@H]3CCC4=CC(=O)CC[C@]4(C)[C@H]3CC[C@@]21C	inactive
C(=C\c1ccccc1)/CN1CCN(C(c2ccccc2)c2ccccc2)CC1	inactive
CC(C)(C)c1ccc(C(=O)CCCN2CCC(OC(c3ccccc3)c3ccccc3)CC2)cc1	inactive
CC(C)Cn1c(=O)n(C)c(=O)c2[nH]cnc21	inactive
O=C(CCCN1CCC(O)(c2ccc(Cl)cc2)CC1)c1ccc(F)cc1	inactive
N[C@@H](Cc1c[nH]c2ccc(O)cc12)C(=O)O	inactive
CN(C)C(=O)C(CCN1CCC(O)(c2ccc(Cl)cc2)CC1)(c1ccccc1)c1ccccc1	inactive
Cn1ccc2cc3c(cc21)CCN3C(=O)Nc1cccnc1	inactive
Cc1cc(O)c2c(c1)C(=O)c1cc(O)cc(O)c1C2=O	inactive
CN1C2CCC1CC(OC(=O)C(CO)c1ccccc1)C2 (centres undefined)	inactive
CC(C)NCC(O)COc1ccc(CC(N)=O)cc1 (centres undefined)	inactive
CC(C)(Oc1ccc(C2CC2(Cl)Cl)cc1)C(=O)O (centres undefined)	inactive
O=C(CCCN1CCC(O)(c2cccc(C(F)(F)F)c2)CC1)c1ccc(F)cc1	inactive
NCCCCN	inactive
O=C(O)c1cc2cc(Cc3cccnc3)ccc2o1	inactive
CN/C(=C\[N+](=O)[O-])NCCSCc1ccc(CN(C)C)o1	inactive
O=C1OC(=O)C2C3CCC(O3)C12 (centres undefined)	inactive
CC(=O)[C@H]1CC[C@H]2[C@@H]3CCC4=CC(=O)CC[C@]4(C)[C@H]3CC[C@]12C	inactive
COc1ccc(CCN(C)CCCC(C#N)(c2cc(OC)c(OC)c(OC)c2)C(C)C)cc1OC (centres undefined)	inactive
CCOC(=O)c1cnc2c(cnn2CC)c1NN=C(C)C	inactive
C=C[C@H]1CN2CCC1C[C@@H]2[C@@H](O)c1ccnc2ccc(OC)cc12 (some centres undefined)	inactive
CCC1C(=O)OCC1Cc1cncn1C (centres undefined)	inactive
